The measured values listed here are drawn from paper PMC5877551.

Target: human tyrosinase (hTyr) (Homo sapiens)
Sequence (P14679 19-476 limits assumed): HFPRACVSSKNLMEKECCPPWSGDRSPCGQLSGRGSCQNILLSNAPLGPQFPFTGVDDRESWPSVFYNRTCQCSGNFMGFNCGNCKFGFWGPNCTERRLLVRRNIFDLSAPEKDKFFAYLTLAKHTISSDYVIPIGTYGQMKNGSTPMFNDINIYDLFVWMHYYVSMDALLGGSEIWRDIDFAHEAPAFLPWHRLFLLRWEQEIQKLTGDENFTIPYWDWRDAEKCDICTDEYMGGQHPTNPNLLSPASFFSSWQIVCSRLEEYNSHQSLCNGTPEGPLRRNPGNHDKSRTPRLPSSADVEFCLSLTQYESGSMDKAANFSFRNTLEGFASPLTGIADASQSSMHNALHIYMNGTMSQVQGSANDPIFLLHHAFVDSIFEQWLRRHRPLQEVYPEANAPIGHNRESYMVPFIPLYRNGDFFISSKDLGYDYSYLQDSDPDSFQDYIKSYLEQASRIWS
Experiment: L-Dopa oxidase activity of hTyr, dose-response profiles (MBTH assay)
Format: biochemical
Design: A truncated, His-tagged form of hTyr (hTyr-DHis) was expressed in HEK 293 cells; His tag; made in house; host or cells: HEK 293 cells
Conditions: dopa oxidase activity of hTyr, 1 mM L-Dopa, phosphate buffer pH 7.0, 37 °C; values above 3 mM given as >3000
REPORTED_METRIC: EC50 (µM)

(P) Nc1nc(-c2ccc(O)cc2O)cs1
(Q) CC(=O)Nc1nc(-c2ccc(O)cc2O)c[nH]1
(R) Oc1ccc(-c2csc(Nc3ncccn3)n2)c(O)c1
(S) Oc1ccc(Nc2nc(-c3ccc(O)cc3O)cs2)cc1
Qu. Rank the items above by EC50, largest value first. Reply with the labels, ordered as the question asks.
Ans. Q, P, S, R
(Q: 750 µM, P: 51 µM, S: 9.8 µM, R: 3.2 µM)
